- subject of test: HIV-1 Env of isolate MGRM-D-008 (subtype D) (HIV-1)
- assay procedure: cell-based or functional assay
observable: IC50 (neutralization)

Fill in: IC50 (neutralization) of PGT-127 (antibody, V domains shown) VH: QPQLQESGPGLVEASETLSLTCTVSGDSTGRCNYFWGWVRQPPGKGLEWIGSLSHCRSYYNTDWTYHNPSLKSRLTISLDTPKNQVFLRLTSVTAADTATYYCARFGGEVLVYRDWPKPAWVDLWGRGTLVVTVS VL: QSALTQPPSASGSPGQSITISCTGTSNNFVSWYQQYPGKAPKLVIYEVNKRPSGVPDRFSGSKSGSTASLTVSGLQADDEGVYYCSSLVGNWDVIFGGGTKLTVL is ___ > 50 µg/mL

So what's the measured IC50 (neutralization) for this one? PGT-136 (antibody, V domains shown) VH: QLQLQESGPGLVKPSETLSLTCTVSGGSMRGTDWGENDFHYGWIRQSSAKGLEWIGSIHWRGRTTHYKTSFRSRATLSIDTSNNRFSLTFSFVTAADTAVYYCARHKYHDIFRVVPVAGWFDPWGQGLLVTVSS VL: EIVMTQSPPTLSVSPGETATLSCRASQNVKNNLAWYQLKPGQAPRLLIFDASSRAGGIPDRFSGSGYGTDFTLTVNSVQSEDFGDYFCQQYEEWPRTFGQGTKVDIK > 50 µg/mL

Consider the binder PGT-135 (antibody, V domains shown) VH: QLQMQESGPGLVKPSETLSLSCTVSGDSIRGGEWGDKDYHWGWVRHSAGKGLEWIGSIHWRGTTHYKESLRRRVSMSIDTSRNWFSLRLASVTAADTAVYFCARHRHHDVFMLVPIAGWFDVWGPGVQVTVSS VL: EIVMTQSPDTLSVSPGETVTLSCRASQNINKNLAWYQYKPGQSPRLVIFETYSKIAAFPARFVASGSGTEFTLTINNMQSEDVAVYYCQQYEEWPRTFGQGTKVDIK and give its measured IC50 (neutralization). > 50 µg/mL
